Value source: patent US20260240847A1

# target-system: EGFR S768I (Homo sapiens, UniProt P00533, S768I)
# experiment-description: Ba/F3 cell viability, Cell Titer Glo
# assay-context: read-out: IC50 Values; Ba/F3 cells expressing EGFR S768I, 72 hours
pIC50: −log10 of the molar value.
readout-name: pIC50

* C=CC(=O)N1CC[C@@H](Oc2nc(Nc3ccc(N4CCC(N5CCN(C)CC5)CC4)cc3)c(C(N)=O)nc2CC)C1 [Naquotinib] | 6.30

----------
List of pIC50 values.
# target-system: EGFR G719A T790M (Homo sapiens, UniProt P00533, G719A/T790M)
# Sequence (P00533 25-1210 G719A/T790M): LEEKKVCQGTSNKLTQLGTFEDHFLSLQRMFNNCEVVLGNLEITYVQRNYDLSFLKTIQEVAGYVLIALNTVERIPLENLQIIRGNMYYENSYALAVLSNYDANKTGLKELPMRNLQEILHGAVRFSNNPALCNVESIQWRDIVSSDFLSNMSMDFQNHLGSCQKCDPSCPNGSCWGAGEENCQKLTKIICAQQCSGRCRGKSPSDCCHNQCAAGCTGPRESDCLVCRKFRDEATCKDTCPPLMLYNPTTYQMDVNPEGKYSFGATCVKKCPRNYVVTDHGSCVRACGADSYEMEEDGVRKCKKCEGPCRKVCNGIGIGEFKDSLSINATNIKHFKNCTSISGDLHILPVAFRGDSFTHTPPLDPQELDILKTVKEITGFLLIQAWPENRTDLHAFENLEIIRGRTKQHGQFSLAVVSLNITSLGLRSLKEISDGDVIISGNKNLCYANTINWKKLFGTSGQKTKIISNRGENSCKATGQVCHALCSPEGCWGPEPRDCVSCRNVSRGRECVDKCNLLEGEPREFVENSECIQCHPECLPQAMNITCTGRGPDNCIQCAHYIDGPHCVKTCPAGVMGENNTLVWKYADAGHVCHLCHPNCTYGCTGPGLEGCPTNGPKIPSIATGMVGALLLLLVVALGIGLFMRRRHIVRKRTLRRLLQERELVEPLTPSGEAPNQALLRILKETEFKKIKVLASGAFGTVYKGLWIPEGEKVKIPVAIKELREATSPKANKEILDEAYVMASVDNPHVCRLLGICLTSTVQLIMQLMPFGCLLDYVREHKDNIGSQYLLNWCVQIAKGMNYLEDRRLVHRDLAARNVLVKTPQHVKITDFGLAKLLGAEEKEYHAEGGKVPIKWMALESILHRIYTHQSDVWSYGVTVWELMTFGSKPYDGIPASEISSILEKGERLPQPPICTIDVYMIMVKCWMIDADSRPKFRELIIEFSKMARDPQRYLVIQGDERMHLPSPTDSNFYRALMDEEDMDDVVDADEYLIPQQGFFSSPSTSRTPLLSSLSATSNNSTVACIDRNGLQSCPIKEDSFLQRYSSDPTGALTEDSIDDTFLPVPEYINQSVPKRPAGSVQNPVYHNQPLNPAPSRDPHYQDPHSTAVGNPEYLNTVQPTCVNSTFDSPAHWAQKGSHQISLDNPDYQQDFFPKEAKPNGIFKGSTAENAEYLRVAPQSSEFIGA
# experiment-description: Ba/F3 cell viability, Cell Titer Glo
# assay-context: read-out: IC50 Values; Ba/F3 cells expressing EGFR G719A T790M, 72 hours
pIC50: −log10 of the molar value.
readout-name: pIC50

- C=CC(=O)N1CC[C@@H](Oc2nc(Nc3ccc(N4CCC(N5CCN(C)CC5)CC4)cc3)c(C(N)=O)nc2CC)C1: 7.93
- COc1cc(N2CCC(N)CC2)ccc1Nc1ncc(Cl)c(-c2c[nH]c3ccccc23)n1: 5.87

----------
# target-system: EGFR Ex19del G796S (Homo sapiens, UniProt P00533, DEL746-750/G796S)
# Sequence (P00533 with tags, fused parts or gaps DEL746-750/G796S): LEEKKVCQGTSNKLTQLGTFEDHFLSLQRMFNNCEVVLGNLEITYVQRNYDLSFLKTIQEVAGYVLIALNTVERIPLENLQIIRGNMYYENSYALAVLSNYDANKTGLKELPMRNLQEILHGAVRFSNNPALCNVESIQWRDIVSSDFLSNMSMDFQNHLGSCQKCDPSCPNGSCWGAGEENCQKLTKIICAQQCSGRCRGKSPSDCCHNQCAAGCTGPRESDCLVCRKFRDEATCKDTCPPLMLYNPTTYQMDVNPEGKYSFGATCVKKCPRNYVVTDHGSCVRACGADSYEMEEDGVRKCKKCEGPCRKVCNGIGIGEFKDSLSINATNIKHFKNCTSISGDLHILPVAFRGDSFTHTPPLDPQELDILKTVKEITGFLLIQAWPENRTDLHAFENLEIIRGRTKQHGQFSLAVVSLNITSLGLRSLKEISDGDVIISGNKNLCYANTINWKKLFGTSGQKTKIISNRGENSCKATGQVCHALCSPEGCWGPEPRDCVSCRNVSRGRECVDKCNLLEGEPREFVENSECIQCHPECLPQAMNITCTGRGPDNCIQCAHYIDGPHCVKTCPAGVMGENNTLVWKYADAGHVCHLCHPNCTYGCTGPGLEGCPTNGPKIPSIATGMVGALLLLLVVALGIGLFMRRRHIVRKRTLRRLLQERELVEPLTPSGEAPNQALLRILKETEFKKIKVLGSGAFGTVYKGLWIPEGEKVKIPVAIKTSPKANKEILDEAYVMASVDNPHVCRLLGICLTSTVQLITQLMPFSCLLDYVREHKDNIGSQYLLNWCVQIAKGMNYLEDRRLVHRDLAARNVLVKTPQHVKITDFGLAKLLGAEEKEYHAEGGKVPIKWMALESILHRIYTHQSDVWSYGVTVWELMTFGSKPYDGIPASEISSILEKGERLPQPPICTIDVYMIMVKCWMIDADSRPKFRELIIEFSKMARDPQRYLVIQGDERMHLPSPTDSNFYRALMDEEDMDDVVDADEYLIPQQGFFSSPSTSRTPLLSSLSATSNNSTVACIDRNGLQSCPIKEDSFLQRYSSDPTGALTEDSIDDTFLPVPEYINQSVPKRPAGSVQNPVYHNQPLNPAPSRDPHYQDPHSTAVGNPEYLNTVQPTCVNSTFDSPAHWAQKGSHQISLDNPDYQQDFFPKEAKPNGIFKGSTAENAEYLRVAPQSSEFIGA
# experiment-description: Ba/F3 cell viability, Cell Titer Glo
# assay-context: read-out: IC50 Values; Ba/F3 cells expressing EGFR Ex19del G796S, 72 hours
pIC50: −log10 of the molar value.
readout-name: pIC50

• C=CC(=O)N1CC[C@@H](Oc2nc(Nc3ccc(N4CCC(N5CCN(C)CC5)CC4)cc3)c(C(N)=O)nc2CC)C1 = 7.27

----------
# target-system: EGFR Ex19del L718V (Homo sapiens, UniProt P00533, DEL746-750/L718V)
# experiment-description: Ba/F3 cell viability, Cell Titer Glo
# assay-context: read-out: IC50 Values; Ba/F3 cells expressing EGFR Ex19del L718V, 72 hours
pIC50: −log10 of the molar value.
readout-name: pIC50

• C=CC(=O)N1CC[C@@H](Oc2nc(Nc3ccc(N4CCC(N5CCN(C)CC5)CC4)cc3)c(C(N)=O)nc2CC)C1 [Naquotinib] = 7.86

----------
# target-system: EGFR L833V (Homo sapiens, UniProt P00533, L833V)
# Sequence (P00533 25-1210 L833V): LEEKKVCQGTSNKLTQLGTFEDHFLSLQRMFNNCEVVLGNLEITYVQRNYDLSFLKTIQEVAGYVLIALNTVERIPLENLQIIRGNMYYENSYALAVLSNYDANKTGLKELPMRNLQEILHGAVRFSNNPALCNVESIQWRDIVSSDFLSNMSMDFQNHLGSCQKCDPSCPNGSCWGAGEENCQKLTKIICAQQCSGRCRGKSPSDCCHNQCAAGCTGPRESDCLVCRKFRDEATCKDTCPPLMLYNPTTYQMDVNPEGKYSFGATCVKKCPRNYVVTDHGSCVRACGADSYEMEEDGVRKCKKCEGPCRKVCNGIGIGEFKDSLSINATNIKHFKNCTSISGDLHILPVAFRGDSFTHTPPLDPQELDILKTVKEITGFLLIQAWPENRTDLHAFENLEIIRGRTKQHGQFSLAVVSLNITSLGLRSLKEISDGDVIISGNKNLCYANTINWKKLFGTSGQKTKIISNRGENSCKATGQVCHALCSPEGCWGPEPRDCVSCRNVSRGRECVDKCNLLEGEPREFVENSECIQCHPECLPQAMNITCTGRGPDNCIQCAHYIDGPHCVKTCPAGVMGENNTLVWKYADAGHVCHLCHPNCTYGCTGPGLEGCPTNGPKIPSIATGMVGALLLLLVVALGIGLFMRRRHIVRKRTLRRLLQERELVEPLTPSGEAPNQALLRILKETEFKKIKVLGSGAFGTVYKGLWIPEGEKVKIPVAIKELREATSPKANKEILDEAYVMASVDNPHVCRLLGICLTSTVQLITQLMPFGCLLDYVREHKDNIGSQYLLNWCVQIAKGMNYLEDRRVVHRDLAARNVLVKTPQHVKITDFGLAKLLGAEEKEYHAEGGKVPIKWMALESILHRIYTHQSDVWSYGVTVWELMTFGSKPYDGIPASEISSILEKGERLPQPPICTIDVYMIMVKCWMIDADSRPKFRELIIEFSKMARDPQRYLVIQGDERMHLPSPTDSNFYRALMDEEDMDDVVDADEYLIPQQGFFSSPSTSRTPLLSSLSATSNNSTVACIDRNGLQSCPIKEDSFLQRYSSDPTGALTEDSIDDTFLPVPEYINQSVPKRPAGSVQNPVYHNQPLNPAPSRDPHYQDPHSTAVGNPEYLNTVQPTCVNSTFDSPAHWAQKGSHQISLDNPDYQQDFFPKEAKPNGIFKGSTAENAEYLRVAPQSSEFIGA
# experiment-description: Ba/F3 cell viability, Cell Titer Glo
# assay-context: read-out: IC50 Values; Ba/F3 cells expressing EGFR L833V, 72 hours
readout-name: IC50

* C=CC(=O)N1CC[C@@H](Oc2nc(Nc3ccc(N4CCC(N5CCN(C)CC5)CC4)cc3)c(C(N)=O)nc2CC)C1 | 402 nM

----------
# target-system: EGFR A767insASV (Homo sapiens, UniProt P00533, DUP767-769)
# experiment-description: Ba/F3 cell viability, Cell Titer Glo
# assay-context: read-out: IC50 Values; Ba/F3 cells expressing EGFR A767insASV, 72 hours
pIC50: −log10 of the molar value.
readout-name: pIC50

- C=CC(=O)N1CC[C@@H](Oc2nc(Nc3ccc(N4CCC(N5CCN(C)CC5)CC4)cc3)c(C(N)=O)nc2CC)C1: 6.66

----------
# target-system: EGFR Ex19delT790M L718V (Homo sapiens, UniProt P00533, DEL746-750/L718V/T790M)
# Sequence (P00533 with tags, fused parts or gaps L718V/DEL746-750/T790M): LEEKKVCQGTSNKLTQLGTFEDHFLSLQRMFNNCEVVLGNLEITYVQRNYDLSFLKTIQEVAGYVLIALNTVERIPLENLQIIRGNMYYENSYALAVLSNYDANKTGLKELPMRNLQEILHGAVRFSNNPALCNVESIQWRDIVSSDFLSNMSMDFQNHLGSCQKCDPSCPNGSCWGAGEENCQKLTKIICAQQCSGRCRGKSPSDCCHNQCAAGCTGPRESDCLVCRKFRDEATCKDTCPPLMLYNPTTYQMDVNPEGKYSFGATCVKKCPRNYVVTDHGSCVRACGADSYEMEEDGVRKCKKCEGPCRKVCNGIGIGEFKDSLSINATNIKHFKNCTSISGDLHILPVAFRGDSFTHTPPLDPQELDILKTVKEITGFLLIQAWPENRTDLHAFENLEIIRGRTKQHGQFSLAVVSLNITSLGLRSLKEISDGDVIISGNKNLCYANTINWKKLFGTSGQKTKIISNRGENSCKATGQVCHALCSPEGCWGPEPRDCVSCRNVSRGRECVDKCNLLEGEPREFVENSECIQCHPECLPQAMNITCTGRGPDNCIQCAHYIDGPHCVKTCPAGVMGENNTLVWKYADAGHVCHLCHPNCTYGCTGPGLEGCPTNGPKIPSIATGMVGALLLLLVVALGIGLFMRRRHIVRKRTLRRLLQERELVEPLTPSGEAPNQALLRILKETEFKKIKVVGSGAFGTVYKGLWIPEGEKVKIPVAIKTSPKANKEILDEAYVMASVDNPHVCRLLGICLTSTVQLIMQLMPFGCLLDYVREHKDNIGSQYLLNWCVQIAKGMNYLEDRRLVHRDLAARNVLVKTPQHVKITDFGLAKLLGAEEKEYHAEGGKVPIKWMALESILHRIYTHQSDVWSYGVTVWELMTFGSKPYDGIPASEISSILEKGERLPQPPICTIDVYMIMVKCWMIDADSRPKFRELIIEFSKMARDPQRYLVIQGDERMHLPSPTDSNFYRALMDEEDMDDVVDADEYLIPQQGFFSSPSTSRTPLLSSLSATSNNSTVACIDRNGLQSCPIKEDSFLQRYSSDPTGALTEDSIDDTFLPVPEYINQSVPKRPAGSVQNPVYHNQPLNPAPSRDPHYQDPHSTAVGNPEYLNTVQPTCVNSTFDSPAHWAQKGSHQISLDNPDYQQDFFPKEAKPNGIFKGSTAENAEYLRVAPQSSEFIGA
# experiment-description: Ba/F3 cell viability, Cell Titer Glo
# assay-context: read-out: IC50 Values; Ba/F3 cells expressing EGFR Ex19delT790M L718V, 72 hours
List of IC50 values.
readout-name: IC50

• COc1cc(N2CCC(N)CC2)ccc1Nc1ncc(Cl)c(-c2c[nH]c3ccccc23)n1 [AZD3463] = 1340 nM
• C=CC(=O)N1CC[C@@H](Oc2nc(Nc3ccc(N4CCC(N5CCN(C)CC5)CC4)cc3)c(C(N)=O)nc2CC)C1 [Naquotinib] = 7.72 nM
